B1: library; a variant is named by its letters at N, in order (parent)
chain: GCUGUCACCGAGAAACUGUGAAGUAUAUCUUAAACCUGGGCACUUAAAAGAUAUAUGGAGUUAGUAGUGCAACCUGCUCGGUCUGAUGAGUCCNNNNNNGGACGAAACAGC

Variants of: B1
Measurement Protocol: normalized RNA/DNA level without ligand (relative to sTRSVctl = 100) (log10 (% of sTRSVctl)); HEK293T; ligand: cyclic di-GMP (c-di-GMP-II aptamer); higher = less ribozyme self-cleavage, higher mRNA level
Condition Notes: reporter: mCherry (pCS4076), ligand present: no
Property Label: normalized RNA/DNA level without ligand (log10)
Would you mind answering with just the numeric figure?

What does the data say about its normalized RNA/DNA level without ligand (log10)? Entry: "AAUUCG"
1.65

From here, focus on the item given below.
What does the data say about its normalized RNA/DNA level without ligand (log10)? Entry: "GACAAU"
1.59
